Values compiled from patent US11673861B2.

# measurement_notes: Dielectric breakdown strength, ASTM D877-13 Procedure A
# Assay type: physicochemical
# test_context: electrode spacing 2.54 mm, rate of rise 500 V/sec
quantity: Dielectric Breakdown Voltage (kV)
API: value field is a number in kV; no unit string.

- molecule: "FC(F)=C(F)C(F)(F)OC(F)(F)C(F)(F)C(F)(F)F [MA-3, reference compound]"
  unit_descriptor: "kV"
  data_value: 30.7
- molecule: "FC(F)=C(F)C(F)(F)OC(F)(F)C(F)(F)C(F)(F)OC(F)(F)F [MA-31, reference compound]"
  unit_descriptor: "kV"
  data_value: 39.4

Could you share which Dielectric Breakdown Voltage value was measured for FC(OC(F)(F)C(F)(F)C(F)(F)F)=C(F)C(F)(F)F ?
41.7

---

# measurement_notes: Dielectric constant, ASTM D150-11
# Assay type: physicochemical
quantity: Dielectric Constant (measured at 1 kHz)
Lab note: jot the number down without any unit.

The following molecules have reported results that may help.
- molecule: "FC(OC(F)(F)C(F)(F)C(F)(F)OC(F)(F)F)=C(F)C(F)(F)F"
  Dielectric Constant (measured at 1 kHz): 2.04
- molecule: "FC(OC(F)(F)C(F)(F)C(F)(F)F)=C(F)C(F)(F)F"
  Dielectric Constant (measured at 1 kHz): 2.04
- molecule: "FC(F)=C(F)C(F)(F)OC(F)(F)C(F)(F)C(F)(F)OC(F)(F)F [MA-31, reference compound]"
  Dielectric Constant (measured at 1 kHz): 2.37

Which Dielectric Constant (measured at 1 kHz) value is on record for FC(F)=C(F)C(F)(F)OC(F)(F)C(F)(F)C(F)(F)F [MA-3, reference compound] ?
2.37
